Hey, just so you know, these numbers are from the supplement of paper PMC11451515.

# System: SEM cells
# method: cell viability relative to DMSO control; higher = less cytotoxic
# setup.conditions: RPMI 5 mM glucose + 10% FBS; 48 h; 0.00234 µM
readout.kind: cell viability (%)
Express your answer in %, writing the number without its unit.

Check out these entries, answers already filled in.
[[record]]
compound = "NC\\1=N\\C(=O)N(\\C=C1)[C@@H]2O[C@H](CO)[C@@H](O)[C@@H]2O"
value_measured = 37.7

[[record]]
compound = "CCC[S+]([O-])c1ccc2[nH]c(NC(=O)OC)nc2c1 (configuration not stated)"
value_measured = 99.4

[[record]]
compound = "C[S+](=O)([O-])Nc1ccc([N+](=O)[O-])cc1Oc1ccccc1"
value_measured = 111

[[record]]
compound = "O=C(C=CC#Cc1cccc(N[S+](=O)([O-])c2ccccc2)c1)NO"
value_measured = 80.6

[[record]]
compound = "COc1ccc(-c2ccc3ncc4c(c3c2)n(-c2ccc(N3CCNCC3)c(C(F)(F)F)c2)c(=O)n4C)cn1"
value_measured = 77.7

[[record]]
compound = "CN(C)C(=N)NC(=N)N"
value_measured = 122

[[record]]
compound = "FC1=CC=C(C=C1)N2/C=C\\C=C(C(=O)NC3=CC=C(OC4=C5C=C[NH]C5=NC=C4)C(=C3)F)/C2=O"
value_measured = 69.9

[[record]]
compound = "C[C@]12CCC(=O)C=C1CC[C@@H]1[C@@H]2[C@@H](O)C[C@@]2(C)[C@H]1CC[C@]2(O)C(=O)CO"
value_measured = 82.7

[[record]]
compound = "CC[C@]12CC[C@H]3[C@@H](CCC/4=C/C(=O)CC[C@H]34)[C@@H]1\\C=C/[C@@]2(O)C#C"
value_measured = 107

[[record]]
compound = "C[C@]12CC[C@H]3[C@@H](CC[C@H]4NC(=O)\\C=C/[C@]34C)[C@@H]1CC[C@@H]2C(=O)NC5=CC(=CC=C5C(F)(F)F)C(F)(F)F"
value_measured = 120


*Q* For the compound OC[C@@H](O)[C@@H](O)[C@H](O)[C@@H](O)CO , give its reported cell viability.
*A* 105

*Q* Identify the reported cell viability for the following entry. CNC(=O)c1c(-c2ccc(F)cc2)oc2cc(N(CCO)[S+](C)(=O)[O-])c(C3CC3)cc12
*A* 71.1

*Q* Return cell viability (reported value) for this compound: COCC1(CO)C(=O)C2CCN1CC2 (configuration not stated)
*A* 105

*Q* // Input: O=C(c1ccc(OCCN2CCCCC2)cc1)c1c(-c2ccc(O)cc2)sc2cc(O)ccc12 . Output its cell viability only.
*A* 122

*Q* Respond only with cell viability recorded for CC(C)C1NC(=O)C(NC(=O)C2=C3\N=C\4/C(=C(C)\C(=O)\C(=C4C(=O)NC5C(C)OC(=O)C(C(C)C)N(C)C(=O)CN(C)C(=O)C6CCCN6C(=O)C(NC5=O)C(C)C)N)OC3=C(C)C=C2)C(C)OC(=O)C(C(C)C)N(C)C(=O)CN(C)C(=O)C7CCCN7C1=O (configuration not stated)
*A* 8.45

*Q* Give reported cell viability value for C[C@H]1COC2=C3N1\C=C(C(O)=O)/C(=O)C3=CC(=C2N4CCN(C)CC4)F
*A* 115

*Q* Please indicate cell viability recorded for COc1ccc([S+](=O)([O-])N(C(C)=O)c2ccccc2/C=C/c2cc[n+]([O-])cc2)cc1
*A* 131
